Task for the reader: assign each of the following molecules its reported IC50.
EXPERIMENTAL_SYSTEM: kinase Axl (Homo sapiens)
Construct: purchased Carna 08-107
Sequence (P30530 473-894 limits assumed): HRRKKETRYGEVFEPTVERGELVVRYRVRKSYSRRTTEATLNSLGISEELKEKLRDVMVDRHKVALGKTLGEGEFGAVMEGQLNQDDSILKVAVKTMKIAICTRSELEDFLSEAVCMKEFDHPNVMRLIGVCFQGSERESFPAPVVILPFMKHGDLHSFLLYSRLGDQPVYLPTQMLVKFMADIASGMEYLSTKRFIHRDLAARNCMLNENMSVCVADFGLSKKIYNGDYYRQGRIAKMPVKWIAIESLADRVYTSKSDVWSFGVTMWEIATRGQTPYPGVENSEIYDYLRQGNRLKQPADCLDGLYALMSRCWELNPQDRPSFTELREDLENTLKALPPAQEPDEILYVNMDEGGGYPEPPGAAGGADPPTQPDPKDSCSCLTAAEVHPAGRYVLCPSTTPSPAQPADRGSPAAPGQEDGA
PROTOCOL_TEXT: Mobility shift assay, inhibitory activity against kinase Axl
Type: biochemical
SETTINGS: ATP at Km (81 μM), average of two independent experiments
Dear colleague, please return just the value in nM, with no unit written.

Quick one: IC50 for `N#Cc1c(C2CC2)cc(C(=O)Nc2ccc(-c3cc(-c4cnn(C5CCNCC5)c4)cnc3N)c(F)c2)c(=O)n1-c1ccc(F)cc1` ? 2.1

Subsequent entry: `COc1cc2nccc(Oc3ccc(NC(=O)c4cn(C5CC5)c(C#N)c(-c5ccc(F)cc5)c4=O)cc3F)c2cc1OC` 5.9

Subsequent entry: `CCn1cc(-c2cnc(N)c(-c3ccc(NC(=O)c4cc(C5CC5)c(C#N)n(-c5ccc(F)cc5)c4=O)cc3F)c2)cn1` 12

Subsequent entry: `N#Cc1c(-c2ccc(F)cc2)c(=O)c(C(=O)Nc2ccc(-c3cc(-c4cnn(C5CCNCC5)c4)cnc3N)c(F)c2)cn1C1CCC1` 1.1

Subsequent entry: `CCn1cc(-c2cnc(N)c(-c3ccc(NC(=O)c4cn(C5CC5)c(C#N)c(-c5ccc(F)cc5)c4=O)cc3F)c2)cn1` 2.8

Subsequent entry: `COc1ccc(-c2cnc(N)c(-c3ccc(NC(=O)c4cn(C(C)C)c(C#N)c(-c5ccc(F)cc5)c4=O)cc3F)c2)cc1OC` 13
